- Tested on: Liver
- EXPERIMENT: Intrinsic clearance in mouse liver microsomes at 1 uM by LC/MS analysis
- Format: ADME, Microsome
- EXPERIMENTAL_CONDITIONS: microsomes, 1 µM
Microsomal intrinsic clearance (CLint) class ranges: band 1 (below 60 µL/min/mg), band 2 (60 µL/min/mg to below 80 µL/min/mg), band 3 (80 µL/min/mg or more)

Below, 3 compounds whose answers are already recorded.
| SMILES_CODE | TEST_TARGET | CAT |
| --- | --- | --- |
| CCOC(=O)C1=C(C)N/C(=C/c2cc(C)n(-c3ccc(Br)cc3)c2C)C1=O | Liver | band 2 |
| CCOC(=O)C1=C(C)N/C(=C/c2cc(C)n(-c3ccc(SC(F)(F)F)cc3)c2C)C1=O | Liver | band 2 |
| CCOC(=O)C1=C(C)N/C(=C/c2cc(C)n(-c3ccc(CN(C)C)cc3)c2C)C1=O | Liver | band 1 |

Please let me know in which category the item CCOC(=O)C1=C(C)N/C(=C/c2cc(C)n(-c3ccc(N(C)C)cc3)c2C)C1=O belongs.
band 1

Into which bin does this compound go? CCOC(=O)C1=C(C)N/C(=C/c2cc(C)n(-c3ccc(N4CCOCC4)cc3)c2C)C1=O
band 1

The entry to classify is CCOC(=O)C1=C(C)N/C(=C/c2cc(C)n(-c3ccc(C(F)(F)F)cc3)c2C)C1=O ; which class holds it?
band 1
